- Test system: Staphylococcus aureus
- assay_procedure: Activity against Staphylococcus aureus (FDA207PJC-1)
- Format: functional
recorded_endpoint: MIC (µg/mL)
All answers are understood in µg/mL, so give the number only.

Which MIC value is on record for CC1COc2c(N3CCN(C)CC3)c(F)cc3c(=O)c(C(=O)O)cn1c23 (stereo not given) ? 0.39

// same read-out, input: CN1CCN(c2nc3c(cc2F)c(=O)c(C(=O)O)c2n3CCS2)CC1 0.39

// same read-out, input: CC1COc2c(C(=O)O)c(=O)c3cc(F)c(N4CCN(C)CC4)nc3n21 (stereo not given) 12.5

// same read-out, input: CN1CCN(c2nc3c(cc2F)c(=O)c(C(=O)O)c2n3CCN2C)CC1 100

// same read-out, input: CCn1cc(C(=O)O)c(=O)c2cc(F)c(N3CCNCC3)nc21 0.78
